- measurement.target: Histone-lysine N-methyltransferase EHMT1 (Homo sapiens)
- Sequence (Q9H9B1 whole entry): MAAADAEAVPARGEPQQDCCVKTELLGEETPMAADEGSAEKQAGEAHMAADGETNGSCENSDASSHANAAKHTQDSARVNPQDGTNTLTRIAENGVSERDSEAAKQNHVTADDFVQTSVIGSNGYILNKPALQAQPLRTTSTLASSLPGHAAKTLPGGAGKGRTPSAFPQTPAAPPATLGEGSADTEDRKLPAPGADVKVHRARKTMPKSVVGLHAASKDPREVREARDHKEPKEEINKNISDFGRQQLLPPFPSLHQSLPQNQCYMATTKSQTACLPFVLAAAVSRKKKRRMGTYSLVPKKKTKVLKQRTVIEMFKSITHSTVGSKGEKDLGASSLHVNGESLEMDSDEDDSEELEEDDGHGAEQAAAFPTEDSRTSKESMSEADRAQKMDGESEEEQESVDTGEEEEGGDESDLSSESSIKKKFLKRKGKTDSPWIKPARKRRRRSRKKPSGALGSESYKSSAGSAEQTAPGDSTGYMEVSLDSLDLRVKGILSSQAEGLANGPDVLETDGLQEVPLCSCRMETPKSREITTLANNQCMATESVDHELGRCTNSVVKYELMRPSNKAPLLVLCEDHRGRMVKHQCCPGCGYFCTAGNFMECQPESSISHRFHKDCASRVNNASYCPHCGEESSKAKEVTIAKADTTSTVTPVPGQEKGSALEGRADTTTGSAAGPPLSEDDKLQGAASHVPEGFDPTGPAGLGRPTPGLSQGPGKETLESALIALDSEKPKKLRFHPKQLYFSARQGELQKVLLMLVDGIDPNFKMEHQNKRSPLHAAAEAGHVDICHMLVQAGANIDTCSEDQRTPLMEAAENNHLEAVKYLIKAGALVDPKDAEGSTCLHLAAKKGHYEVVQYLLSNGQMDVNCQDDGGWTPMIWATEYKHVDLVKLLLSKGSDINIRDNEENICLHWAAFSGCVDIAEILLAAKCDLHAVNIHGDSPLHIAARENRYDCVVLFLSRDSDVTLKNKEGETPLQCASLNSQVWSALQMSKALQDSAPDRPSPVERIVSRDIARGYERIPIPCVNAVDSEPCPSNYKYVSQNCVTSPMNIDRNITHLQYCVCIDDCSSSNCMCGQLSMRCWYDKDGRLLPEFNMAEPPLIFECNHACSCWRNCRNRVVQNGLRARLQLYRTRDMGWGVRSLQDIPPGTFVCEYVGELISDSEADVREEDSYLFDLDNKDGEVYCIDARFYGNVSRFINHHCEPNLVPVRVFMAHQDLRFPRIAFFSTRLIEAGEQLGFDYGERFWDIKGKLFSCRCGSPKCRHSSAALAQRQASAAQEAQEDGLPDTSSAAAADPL
Below, each entry is listed with its recorded IC50.

smiles.entry | IC50 / nM
COc1cc2nc(NCCCCCC(=O)NO)nc(NC3CCN(Cc4ccccc4)CC3)c2cc1OC | 9.2
COc1cc2nc(NCCCCCCC(=O)NO)nc(NC3CCN(C(C)C)CC3)c2cc1OC | 11
COc1cc2nc(N3CCN(CCCCCC(=O)NO)CC3)nc(NC3CCN(Cc4ccccc4)CC3)c2cc1OC | 1.3
COc1cc2nc(N3CCN(Cc4ccc(/C=C/C(=O)NO)cc4)CC3)nc(NC3CCN(Cc4ccccc4)CC3)c2cc1OC | 190
COc1cc2nc(NCCCCCC(=O)NO)nc(NC3CCN(C)CC3)c2cc1OC | 11
COc1cc2nc(NCCCCCCC(=O)NO)nc(NC3CCN(C)CC3)c2cc1OC | 21

Attribution: ChEMBL document CHEMBL5143537
